All figures here come from PubChem BioAssay.

# Test Method Notes: JC-1 mitochondrial potential readout, lung cancer cells – cell-based, A549, JC-1 fluorescence, basal, 24 h, 100 nL, profiling panel (AID 1138);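 further: A549 lung adenocarcinoma cells under basal conditions with no added stimulus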
# Condition Notes: higher = more signal
Reported z-score maps to class as: lower band = under -0.1, central band = from -0.1 up to 0.5, upper band = 0.5 and over

[
  {
    "Molecule": "C/C=C/[C@H](CCn1cc([C@H](O)c2ccccc2)nn1)[Si](C)(C)c1ccc(OC)cc1",
    "Label Value": "central band"
  },
  {
    "Molecule": "C=CCC(OC(C)=O)[C@@H]1[C@@H](N(Cc2ccc(-c3ccccc3)cc2)C(=O)c2ccc(C)cc2)c2cc(OCCCO)ccc2N1C(=O)c1ccc2ccccc2n1 (some centres undefined)",
    "Label Value": "upper band"
  },
  {
    "Molecule": "O=c1cccc(-c2ccc3ccccc3c2)o1",
    "Label Value": "upper band"
  },
  {
    "Molecule": "CN(C)CCCC[C@@H]1NC(=O)[C@@H]2C[C@H](C(=O)NCCCCCN)[C@H](c3ccc(O)cc3)N2C1=O",
    "Label Value": "central band"
  },
  {
    "Molecule": "Cc1c(NC(=O)/C(C#N)=C/C=C/c2ccccc2)c(=O)n(-c2ccccc2)n1C",
    "Label Value": "lower band"
  },
  {
    "Molecule": "COC(=O)c1nc2oc1CC[C@@H](CO)NC(=O)N(C)Cc1cn(nn1)C[C@H](Cc1ccccc1)NC2=O",
    "Label Value": "central band"
  },
  {
    "Molecule": "Cc1cccc(/C=C/C=O)c1",
    "Label Value": "upper band"
  },
  {
    "Molecule": "C=C[C@H](C)[C@H](OC(=O)Nc1ccc(OC)cc1)c1ccc(O)c2ccccc12",
    "Label Value": "lower band"
  }
]

====

composite z-score reference
# Test system: XIP peptide (Xip251-270)
# Test Method Notes: compounds binding XIP fragment 251-270 – biochemical, small-molecule microarray, fluorescence 635/667 nm, 0.5 µg/mL protein, primary screen (AID 1183)
# Condition Notes: fluorescence 635 nm, higher = more signal
Measurement Name: composite z-score

[
  {
    "Molecule": "NC(=O)NCC#Cc1ccc2c(c1)[C@]1(C(=O)N2)[C@H](C(=O)NC[C@H](O)c2ccccc2)[C@H]2C(=O)O[C@H](c3ccccc3)[C@H](c3ccccc3)N2[C@@H]1c1ccccc1OCCO",
    "Study System": "XIP peptide (Xip251-270)",
    "Measurement Name": "composite z-score",
    "Meas Value": 0.799
  },
  {
    "Molecule": "COC(=O)C(CC#Cc1ccc2c(c1)[C@]1(C(=O)N2)[C@H](C(=O)N2CCCCCCC2)[C@H]2C(=O)O[C@H](c3ccccc3)[C@H](c3ccccc3)N2[C@@H]1c1ccccc1OCCO)C(=O)OC",
    "Study System": "XIP peptide (Xip251-270)",
    "Measurement Name": "composite z-score",
    "Meas Value": 1.04
  },
  {
    "Molecule": "CN1C(=O)C2C=CC(C(O)C(C)(C)C)N(Nc3ccccc3)C2C1=O (centres undefined)",
    "Study System": "XIP peptide (Xip251-270)",
    "Measurement Name": "composite z-score",
    "Meas Value": 0.403
  },
  {
    "Molecule": "COc1ccc([Si](C)(C)[C@H]2[C@H](CC(=O)N3CCC[C@H]3CO)O[C@@]3(C(=O)N(c4ccccc4)c4ccccc43)[C@@H]2C)cc1",
    "Study System": "XIP peptide (Xip251-270)",
    "Measurement Name": "composite z-score",
    "Meas Value": 0.531
  },
  {
    "Molecule": "CN(C)CCCCCCNC(=O)[C@@H]1C[C@@H]2C(=O)NCC(=O)N2[C@@H]1c1cccc(OCCO)c1",
    "Study System": "XIP peptide (Xip251-270)",
    "Measurement Name": "composite z-score",
    "Meas Value": 0.851
  },
  {
    "Molecule": "CN(C)CCCC[C@@H]1NC(=O)[C@@H]2C[C@H](C(=O)NCc3ccc(F)cc3)[C@H](c3cccc(OCCO)c3)N2C1=O",
    "Study System": "XIP peptide (Xip251-270)",
    "Measurement Name": "composite z-score",
    "Meas Value": 0.813
  },
  {
    "Molecule": "[N-]=[N+]=NCc1ccccc1[C@H]1OC(c2ccc(OCCCO)cc2)=N[C@@]1(Cc1ccccc1)C(=O)NCC(O)CO (some centres undefined)",
    "Study System": "XIP peptide (Xip251-270)",
    "Measurement Name": "composite z-score",
    "Meas Value": 0.306
  },
  {
    "Molecule": "C=C(CCCC)C(=O)CC[C@H](OC(C)=O)c1ccc(CO)o1",
    "Study System": "XIP peptide (Xip251-270)",
    "Measurement Name": "composite z-score",
    "Meas Value": 0.0921
  },
  {
    "Molecule": "Cc1ccc(S[C@]2(C(=O)NCc3ccccc3)CC(=O)N(Cc3cc(C(F)(F)F)cc(C(F)(F)F)c3)[C@@H]2c2ccc(CO)cc2)cc1",
    "Study System": "XIP peptide (Xip251-270)",
    "Measurement Name": "composite z-score",
    "Meas Value": 0.365
  },
  {
    "Molecule": "COc1ccc(C#Cc2ccc3c(c2)[C@]2(C(=O)N3)[C@H](C(=O)N3CCN(c4ncccn4)CC3)[C@H]3C(=O)O[C@H](c4ccccc4)[C@H](c4ccccc4)N3[C@@H]2c2ccc(O)cc2)cc1",
    "Study System": "XIP peptide (Xip251-270)",
    "Measurement Name": "composite z-score",
    "Meas Value": 0.734
  },
  {
    "Molecule": "[N-]=[N+]=NCc1ccccc1C[C@]1(C(=O)NCCN2CCOCC2)N=C(c2ccc(OCCCO)cc2)O[C@H]1c1ccccc1CN=[N+]=[N-]",
    "Study System": "XIP peptide (Xip251-270)",
    "Measurement Name": "composite z-score",
    "Meas Value": 0.578
  },
  {
    "Molecule": "O=C(NCc1ccccc1)[C@@H]1c2ccccc2C(=O)N(C2CCCCC2)[C@H]1c1ccc(CO)cc1",
    "Study System": "XIP peptide (Xip251-270)",
    "Measurement Name": "composite z-score",
    "Meas Value": 0.732
  },
  {
    "Molecule": "COc1ccc([Si](C)(C)[C@@H]2[C@@H](CC(=O)N3Cc4ccccc4C[C@H]3CO)O[C@]3(C(=O)N(Cc4cccc(N5C(=O)COc6ccccc65)c4)c4ccccc43)[C@H]2C)cc1",
    "Study System": "XIP peptide (Xip251-270)",
    "Measurement Name": "composite z-score",
    "Meas Value": 0.778
  },
  {
    "Molecule": "C=C(/C(=C/C[C@@H](OC(=O)c1ccncc1)c1ccc(CO)o1)c1cc(C(=O)OC)ccc1OC)C(C)C",
    "Study System": "XIP peptide (Xip251-270)",
    "Measurement Name": "composite z-score",
    "Meas Value": 0.813
  },
  {
    "Molecule": "[N-]=[N+]=NCc1ccccc1[C@@H]1OC(c2ccc(OCCCO)cc2)=N[C@]1(Cc1ccccc1)C(=O)O",
    "Study System": "XIP peptide (Xip251-270)",
    "Measurement Name": "composite z-score",
    "Meas Value": 0.859
  },
  {
    "Molecule": "[N-]=[N+]=Nc1ccccc1[C@H]1OC(c2ccc(OCCCO)cc2)=N[C@@]1(CCS(=O)(=O)c1ccccc1)C(=O)N1CCOCC1",
    "Study System": "XIP peptide (Xip251-270)",
    "Measurement Name": "composite z-score",
    "Meas Value": 0.562
  },
  {
    "Molecule": "C=C(COC)C(=O)CC[C@@H](OC(=O)c1ccccc1-c1ccccc1C(=O)O)c1ccc(CO)o1",
    "Study System": "XIP peptide (Xip251-270)",
    "Measurement Name": "composite z-score",
    "Meas Value": 0.633
  },
  {
    "Molecule": "C#C[C@H](O[Si](C#CCCCCCC)(C(C)C)C(C)C)c1ccccc1",
    "Study System": "XIP peptide (Xip251-270)",
    "Measurement Name": "composite z-score",
    "Meas Value": -0.113
  },
  {
    "Molecule": "O=C1OCC=C[C@H]2OC34C=CCN(c5ccc6ccccc6c5)C(=O)[C@H]3N(CCO)C(=O)[C@@H]4[C@@H]12 (some centres undefined)",
    "Study System": "XIP peptide (Xip251-270)",
    "Measurement Name": "composite z-score",
    "Meas Value": 0.605
  },
  {
    "Molecule": "COc1ccc([Si](C)(C)[C@@H]2[C@@H](CCO)O[C@]3(C(=O)N(Cc4cccc(N(C=O)c5ccccc5)c4)c4ccccc43)[C@H]2C)cc1",
    "Study System": "XIP peptide (Xip251-270)",
    "Measurement Name": "composite z-score",
    "Meas Value": 0.675
  },
  {
    "Molecule": "C=CCOC(=O)[C@H]1[C@@H]2C(=O)O[C@@H](c3ccccc3)[C@@H](c3ccccc3)N2[C@@H](c2ccc(OCCOC(=O)[C@@H]3C[C@@H]4C(=O)NCC(=O)N4[C@@H]3c3ccc(O)cc3)cc2)[C@]12C(=O)Nc1ccc(I)cc12",
    "Study System": "XIP peptide (Xip251-270)",
    "Measurement Name": "composite z-score",
    "Meas Value": 0.825
  },
  {
    "Molecule": "COc1ccc(C(=O)Nc2cccc(CN3C(=O)[C@@]4(O[C@@H](CC(=O)N5Cc6ccccc6C[C@H]5CO)[C@H]([Si](C)(C)c5ccc(OC)cc5)[C@H]4C)c4ccccc43)c2)cc1",
    "Study System": "XIP peptide (Xip251-270)",
    "Measurement Name": "composite z-score",
    "Meas Value": 0.698
  },
  {
    "Molecule": "Cc1ccc([C@H]2C(C(=O)O)=C[C@@H](C(C)C)N2S(=O)(=O)c2ccc(C)cc2)cc1",
    "Study System": "XIP peptide (Xip251-270)",
    "Measurement Name": "composite z-score",
    "Meas Value": 0.386
  },
  {
    "Molecule": "O=C1C2C=CC(C(O)C3CC=CCC3)N(n3cnnc3)C2C(=O)N1Cc1ccccc1 (centres undefined)",
    "Study System": "XIP peptide (Xip251-270)",
    "Measurement Name": "composite z-score",
    "Meas Value": -0.0517
  }
]
